Exercise: state measured Relaxivity R1 for each of the compounds provided.
assay: Relaxivity on relaxometer (minispec pc120; 20 MHz; 40° C.); type: physicochemical; conditions: dist. water, pH 7.4, 20 MHz, 0-1 mmol/l
Give your result in I/mmol/s as a bare value.

Task: Quickly give me recorded Relaxivity R1 for `CC(=O)[O-].O=C([O-])c1cccc(-c2c3nc(c(-c4cccc(C(=O)[O-])c4)c4ccc([nH]4)c(-c4cccc(C(=O)[O-])c4)c4nc(c(-c5cccc(C(=O)[O-])c5)c5ccc2[nH]5)C=C4)C=C3)c1.[Mn+3]`
Result: 8.8

Task: Identify Relaxivity R1 associated with the compound `O=C(O)COc1cccc(-c2c3nc(c(-c4cccc(OCC(=O)O)c4)c4ccc([nH]4)c(-c4cccc(OCC(=O)O)c4)c4nc(c(-c5cccc(OCC(=O)O)c5)c5ccc2[nH]5)C=C4)C=C3)c1.[Cl-].[Cl-].[Cl-].[Mn+3]`
Result: 13

Task: Dear colleague, please send me the reported Relaxivity R1 for `CC(=O)[O-].COc1ccc(-c2c3nc(c(-c4ccc(OC)c(S(=O)(=O)[O-])c4)c4ccc([nH]4)c(-c4ccc(OC)c(S(=O)(=O)[O-])c4)c4nc(c(-c5ccc(OC)c(S(=O)(=O)[O-])c5)c5ccc2[nH]5)C=C4)C=C3)cc1S(=O)(=O)[O-].[Mn+3].[Na+].[Na+].[Na+].[Na+]` when you can.
Result: 9.2

Task: Tell me its Relaxivity R1 given `CC(=O)[O-].CC(=O)[O-].CC(=O)[O-].CCOC(=O)COc1ccc(-c2c3nc(c(-c4ccc(OCC(=O)OCC)c(OCC(=O)OCC)c4)c4ccc([nH]4)c(-c4ccc(OCC(=O)OCC)c(OCC(=O)OCC)c4)c4nc(c(-c5ccc(OCC(=O)OCC)c(OCC(=O)OCC)c5)c5ccc2[nH]5)C=C4)C=C3)cc1OCC(=O)OCC.[Mn+3]` as the entry.
Result: 11.6

====

experiment: Compatibility in mice after i.v. administration, 7-day observation; conditions: mouse, in vivo, iv, 7 days observation, > if all animals tolerated the dose, < if all died
measurement.label: MTD at 168 h

Task: Quick one: give measured MTD at 168 h for CC(=O)[O-].CC(=O)[O-].CC(=O)[O-].CCOC(=O)COc1ccc(-c2c3nc(c(-c4ccc(OCC(=O)OCC)c(OCC(=O)OCC)c4)c4ccc([nH]4)c(-c4ccc(OCC(=O)OCC)c(OCC(=O)OCC)c4)c4nc(c(-c5ccc(OCC(=O)OCC)c(OCC(=O)OCC)c5)c5ccc2[nH]5)C=C4)C=C3)cc1OCC(=O)OCC.[Mn+3] [Example 4c]
Result: ≥ 500 µmol/kg

Task: Identify measured MTD at 168 h corresponding to O=C(O)COc1cccc(-c2c3nc(c(-c4cccc(OCC(=O)O)c4)c4ccc([nH]4)c(-c4cccc(OCC(=O)O)c4)c4nc(c(-c5cccc(OCC(=O)O)c5)c5ccc2[nH]5)C=C4)C=C3)c1.[Cl-].[Cl-].[Cl-].[Mn+3] [Example 2c]
Result: > 500 µmol/kg
